B1: library; numbered along this chain (parent)
chain: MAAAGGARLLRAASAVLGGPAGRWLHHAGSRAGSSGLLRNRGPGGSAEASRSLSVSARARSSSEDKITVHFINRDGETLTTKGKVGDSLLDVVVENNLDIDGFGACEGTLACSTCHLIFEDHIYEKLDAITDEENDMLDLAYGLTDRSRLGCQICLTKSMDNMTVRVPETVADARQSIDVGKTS

Variants of: B1
Assay: scaled log2 fold change in cell abundance, elesclomol vs control (0 = silent mean, 1 = nonsense mean) (scaled log2 ratio); higher = higher viability under elesclomol (loss of FDX1 cuproptosis function);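 note: variant abundance is its share of total variant reads in each endpoint sample, from next-generation sequencing of the integrated ORF PCR-amplified out of genomic DNA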
Conditions: with ABC1 FDX1 KO; elesclomol 5 nM; glucose 10 mM; 14 days
Tick True if scaled log2 fold change is 0.02 or greater. Tick False if scaled log2 fold change is less than 0.02.

INSERT INTO measurements (var, group) VALUES
  ('G44E', 'True'),
  ('E125S', 'True'),
  ('A49V', 'False'),
  ('A32W', 'False'),
  ('L89F', 'True'),
  ('N96I', 'True'),
  ('V92W', 'True'),
  ('V92F', 'False'),
  ('S113C', 'False'),
  ('L144Y', 'False'),
  ('L9K', 'True'),
  ('A57K', 'True'),
  ('P168A', 'True'),
  ('H70W', 'False'),
  ('L25M', 'True'),
  ('T114W', 'True'),
  ('A2M', 'True'),
  ('D101R', 'True'),
  ('A172R', 'False'),
  ('R51L', 'True'),
  ('F103C', 'True'),
  ('R149Q', 'True'),
  ('E125N', 'False'),
  ('C115F', 'True'),
  ('T183Y', 'False'),
  ('S113K', 'True'),
  ('R11I', 'True'),
  ('N135V', 'True'),
  ('A49P', 'True'),
  ('Q153W', 'True'),
  ('S46E', 'True'),
  ('S14C', 'True'),
  ('S46Q', 'True'),
  ('S30G', 'False'),
  ('T131V', 'False'),
  ('L9T', 'True'),
  ('R60Q', 'False'),
  ('L89A', 'False'),
  ('S50I', 'True'),
  ('T131C', 'False'),
  ('T109P', 'True'),
  ('A7M', 'False'),
  ('L9I', 'False'),
  ('G5D', 'True'),
  ('S61D', 'True'),
  ('C112W', 'True'),
  ('L10Y', 'True'),
  ('A7R', 'True'),
  ('G18T', 'True'),
  ('D65M', 'False'),
  ('A12W', 'True'),
  ('H27L', 'True'),
  ('A129H', 'False'),
  ('E95I', 'True'),
  ('G18F', 'False'),
  ('C106W', 'True'),
  ('V55L', 'False'),
  ('D91H', 'False'),
  ('K126V', 'True'),
  ('I123P', 'True'),
  ('S34N', 'True'),
  ('L38E', 'False'),
  ('G108D', 'True'),
  ('G102K', 'True'),
  ('N40T', 'False'),
  ('G42K', 'True'),
  ('H116L', 'False'),
  ('E120K', 'True'),
  ('S184L', 'False'),
  ('F103M', 'True'),
  ('K182W', 'True'),
  ('A111S', 'True'),
  ('E133A', 'False'),
  ('G45L', 'True'),
  ('I130Y', 'True'),
  ('D161K', 'True'),
  ('L138C', 'False'),
  ('G44Y', 'True'),
  ('S88Q', 'True'),
  ('R11T', 'True'),
  ('A4Y', 'True'),
  ('L127N', 'True'),
  ('L110S', 'False');
